Test system: Rat white adipocytes
method: Inhibition of the differentiation of adipocytes (Oil Red O)
Type: cell-based
experimental setup: Rattus norvegicus, Adipocyte, 120 h, 100 nM test compound; 5 days; Oil Red O ABS550; control = 100%, blank = 0%; Table 3; read-out: Rate of Differentiation (%)
Decision: activity at 0.1 µM compared against 50%; not below it gives Criterion met, below it gives Criterion not met.

Recorded results for 8 compounds are shown here.
[[record]]
compound = "CC(C)(C)OC(=O)Nc1cccc(-c2csc(NC(=O)c3cc([N+](=O)[O-])ccc3Cl)n2)c1 [Example 234]"
tgt = "Rat white adipocytes"
classification = "Criterion met"

[[record]]
compound = "O=C(Nc1ccc(C(=O)N2CCN(c3ccccc3)CC2)cc1)c1cc([N+](=O)[O-])ccc1Cl [Example 165]"
tgt = "Rat white adipocytes"
classification = "Criterion met"

[[record]]
compound = "CCCN(CCC)c1ccc(-c2ccc(NC(=O)c3cc([N+](=O)[O-])ccc3Cl)cc2)cc1 [Example 194]"
tgt = "Rat white adipocytes"
classification = "Criterion not met"

[[record]]
compound = "O=C(Nc1ccc(C(O)(C(F)(F)F)C(F)(F)F)cc1)c1cc([N+](=O)[O-])ccc1Cl [Example 237]"
tgt = "Rat white adipocytes"
classification = "Criterion not met"

[[record]]
compound = "CCCCCCCCN(CC)c1ccc(-c2ccc(NC(=O)c3cc([N+](=O)[O-])ccc3Cl)cc2)cc1 [Example 225]"
tgt = "Rat white adipocytes"
classification = "Criterion not met"

[[record]]
compound = "CCCCCCN(CCC)c1ccc(-c2ccc(NC(=O)c3cc([N+](=O)[O-])ccc3Cl)cc2)cc1 [Example 198]"
tgt = "Rat white adipocytes"
classification = "Criterion not met"

[[record]]
compound = "CCS(=O)(=O)Nc1ccc(-c2ccc(NC(=O)c3cc([N+](=O)[O-])ccc3Cl)cc2)cc1 [Example 130]"
tgt = "Rat white adipocytes"
classification = "Criterion met"

[[record]]
compound = "O=C(NC(=S)Nc1ccc(-c2ccc(NC(=O)c3cc([N+](=O)[O-])ccc3Cl)cc2)cc1)c1ccccc1 [Example 250]"
tgt = "Rat white adipocytes"
classification = "Criterion not met"


Now for a further compound.
Determine whether this compound has activity at 0.1 µM no lower than 50%: CS(=O)(=O)Nc1ccc(-c2ccc(NC(=O)c3cc([N+](=O)[O-])ccc3Cl)cc2)cc1 [Example 93] Criterion met
